List of protease stability score values.
- test protocol: protease stability score; higher = more stable; yeast display proteolysis, trypsin and chymotrypsin;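 further: relative to predicted unfolded state with 0 unfolded-like and 1 meaning tenfold more protease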

{"record sequence": "SHEDELNEKIAKTFFKDLLTGDEDSITHLLDPNARVHIHVNGRHILIHGREWLEYLKKHARIRHFELHDMEIQGDKLIFDVEVVIEYGDKVIERRSEEILILFNGRVTSYHLIIK", "protease stability score": 1.2}
{"record sequence": "DEEHEEVERMWERFIKYYLTGNEELFDHLADPNVRLIIGDKIAIGREEVRKLWERRRREIRIRHMNFHSVRWYDGRIDLEVEVNLDVNGREIKTEQRIHIKVINGRVKDVEIRVE", "protease stability score": 0.743}
{"record sequence": "HEHEEEVRSMTRLFLHAFVTGDWRTIVELIDPNVRTWFNGKDDHGRESLFKNLIRVLEEFGADHVDITIEEMEVQGNKVRVKMIIEVIVGDKDLRLSINQQAYKVDGRWRVKEIIIH", "protease stability score": 0.725}
{"record sequence": "SEEKDQLKHVLEDLLRSIITGDEERIVELLDPEVRVDVGEKHSHGRENAAHLVQKLSEELRWRDIHVRDVRLIGDKIDIETRLEGDINGRNLIFQTHRHVIKVNGRWYFRRIIIH", "protease stability score": 1.38}
{"record sequence": "DELTEIMLRIAQLILTILLTGNEDHFKRLFDPNVRLTINGVDFVGREWIVHFMRNLTDELRIKDNKIEDIRVQGDKAKVDSRLDGEVDGQHMELRTSYVLIKIDGRWSVHSVEFR", "protease stability score": 1.26}

---

- test protocol: protease stability score; higher = more stable; yeast display proteolysis, trypsin and chymotrypsin;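 further: relative to predicted unfolded state with 0 unfolded-like and 1 meaning tenfold more protease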
protease stability score reference
measure: protease stability score

{"record sequence": "HELLEHVKKIIEMWNKLLHTGDEETLNKLLDPRVRIHVNGRELIGREAVETELREIRFEITYTHVKEVDVVGDKVHVNTLLDGEFRIGNFVIRTRTDARLHLLKVDGKWLLESLHVT", "measure": "protease stability score", "observed result": 1.24}
{"record sequence": "SEDNEHLRKFLEDFIRAMETGDWKMLFRLMDPNVRMEVNGRELHGREEAKKLIEEIISRYDHVHIEIKRAHSIGDKIEVWGISDVEIGDKKHEIPLLFILKKVDGKWIIHSIRSE", "measure": "protease stability score", "observed result": 2.11}
{"record sequence": "DEDTEEMRRFLKAFIRALETGNFEETLRLLDPNVRIRIGDKQLIGREEWHKWRERVDHYEVDDIEIEDMRVIGNKVHVFGRVDIKLIIGDKEHQDRKEVHIIMLKVNGRWLIHEIEVH", "measure": "protease stability score", "observed result": 1.91}

---

Reported protease stability score by item:
- test protocol: protease stability score; higher = more stable; yeast display proteolysis, trypsin and chymotrypsin;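 further: relative to predicted unfolded state with 0 unfolded-like and 1 meaning tenfold more protease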
measure: protease stability score

{"record sequence": "DEDTELAERWVELFRKSVETGDEHKLEKLLDPHVKLDIGDKRYHGRELAVDTLKTMIDEMRSDHVTIDRVDVFDGRVILHSRIESTVDGRRTELEMRIVARKIDGRWVVESLEIN", "measure": "protease stability score", "observed result": 1.49}
{"record sequence": "SEDEKMAERVLRLLYEDILTGDEHALKRLLDPDARLSQGDKQHHGREVLLEWMRTVWERVDHMEFELKDFRFYGNYIIIHGTLTERINGRKLEFEVILYVYKINGKWFLHSIEIR", "measure": "protease stability score", "observed result": 1.85}
{"record sequence": "TELEEEVERLMEIFHKAFETGDEHELKRLADPHVRLDFNGRDIHGMDFIIREWLKIKNMRFRIHLDHVELQGEKVHIDGKVEEDFDGVHRHHRVILIWEKYDGRWHHKRMHVK", "measure": "protease stability score", "observed result": 1.43}
{"record sequence": "DEENNIVKLLFHLYVRAIETGDWKTLEKLADPNYRTIFDGKDLHGREHYMRWVRELRVEDIKLNHIHMQGDKLSIDGEIDVRVGDKETRFEVHIIAEKINGRWILRSSIID", "measure": "protease stability score", "observed result": 1.82}
{"record sequence": "SELKESATDIMRIYIEAWLTGDFEEITRLADPRMRVINDFNGRTQVNHGRELFRETLKHWRIKHVHIDDMRSFEGRSESHGTVHGQFNGVEDEVRFEVRMVVVDGVLHSMTIIFK", "measure": "protease stability score", "observed result": 1.18}
{"record sequence": "NEEEEEIKTLSEEILRAWMTGDFDHLRDMMDPNTKLDINGKEVHGREILINLLRKIMEDLGVKHIHIRHKEHQGNWTHLDERQIVGDKRINVHYIWVVVDGRIHSIRIEMR", "measure": "protease stability score", "observed result": 1.16}
{"record sequence": "DEDTKLMEEVIRLHMELLKTGNWDELLHMLDPNAKFEAEGRDKHGWHNFLREYKHFYEELGFKHSRVHHVRVQGDKLEMDLRINVGDKEFETNLEVLKVNGRWLIKFVRID", "measure": "protease stability score", "observed result": 1.58}
{"record sequence": "SEEEEKLKKILELLRHRILTGDEEFYSRLIDPNARVNIDGKTTHGREEMEHILRELNEDYGVKHHTVRSTEIFDGVNWIRGEFRVNGRSRTVEIIIWVYNGRLKSSEFRFD", "measure": "protease stability score", "observed result": 1.39}
{"record sequence": "DEERKDFEEALKKWLESMETGDEKHLEELFDPNAKFLIDGVELHGREVFKEFLRRFKNVRVEELHLDHLEVQGDKVITHVTFRGTFNGKHENVHRILIAVKFDGRWFVRSIEVH", "measure": "protease stability score", "observed result": 2.34}
{"record sequence": "DDWHEEMREMLELLLRALFTGDEKHLVENLDPNVKIIFDGKDLHGRRDASKLIHEYGVDHITRHKIHDSKFFNGRLDVDGIFDQTVNGRREEVHRRIILLKFDGRWWIHRIEIR", "measure": "protease stability score", "observed result": 1.63}
{"record sequence": "DEQHEEAERAMEHMNRIEHTGDEDDLDRLMDPRTKIEVGDKELHGRHLWRVFLREARIHDSKIRDIRVIGDKVTFHTEVRITINGVEVRVHVIMIIEKVDGKWLVHRVIIR", "measure": "protease stability score", "observed result": 1.35}

---

- test protocol: protease stability score; higher = more stable; yeast display proteolysis, trypsin and chymotrypsin;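 further: relative to predicted unfolded state with 0 unfolded-like and 1 meaning tenfold more protease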

{"record sequence": "DEITHEIEHNLKLLLKAWETGDEHLLTEMIDPHDKIHIGDKTIIGRELRLEIEKRLGAKVVEVEIKRIEVQGDKILMHGTIHIEIGDKRFERESRFVAHKFNGRWHQKSLDII", "protease stability score": 1.21}
{"record sequence": "DERESFIKEVMEQFNRDLLTGDEEHFKERADPDVKIIFDGRETHGWKVLHHLLREIRIRHMHIDDYDIQGDKARVHSTADVEYGDKEDELKIEIRLVVINGRLKEVSIIFR", "protease stability score": 1.16}
{"record sequence": "HEDKQMMEEAVKLWIETSLTGDWRTFHRLADPHVKLQQGDKDLHGREDTRELMEKLGLDRVDIHIRKFRLYDGRIELHVEENFNGKVFEIFIDMRKVDGRWELHRVELR", "protease stability score": 1.43}
{"record sequence": "DDEERILHRIKELFEAAMHTGDWRLEFQQADPHTRVEIGDKEIHGMENIFDMLEDFWRELGIDQIDVEVRDEDSHIQGDKIILHVDITLRYNGVQERFKSTIILQKIDGRWHKKTEHRG", "protease stability score": 1.16}
{"record sequence": "TEEDEMWKELSDILLEIHETGDWDRLIRLVDPDVKVNIDGKDLHGWQEVAHTIRVLLEQFKGVKIIIRHVEIQGDKVHIHMEIRQGDKHYEVHLHYIVVNGKIKQMHMHRR", "protease stability score": 1}
{"record sequence": "DEDSELAQIYNDLWRHTMETGDEHLSRRLLDPEVRLIINGREFIGWSLAIEVEHRLFKRFDHVHIDLEHITIQGDKIHTNSTLHIHFNGVTFEHRIHISIKKVNGRWINHTQRIQ", "protease stability score": 0.801}
{"record sequence": "DDESEHSMKVFRFWAEARETGDEDTLTRLLDPHARLIQGDKHIIGREEWTRIIKERREQYGVKHIHFHIQDMRIFNGRVHLKVHYEIKFDGQSVTIDSEIIITKVDGRWYFESETKR", "protease stability score": 1.11}
{"record sequence": "SDEEESFFTMLELFVEYLHTGDEHEFKKLADPHVRSLYDGVELHGREWFIRKFREMRVKSLHFHHSDIHIINGRARARIDVRLDGEVNGVEDLTETEIRLEVHKVDGQWVFHSVEIHRK", "protease stability score": 1.33}
{"record sequence": "EEVEEEVERATRRHVVDLLTGNWDKLIHEMDPNTYLLINGVKFHGREVYEILLREFIRKYKNARYHITVRDYHVQGDKAIIDMEIRIRIGDKEHHIDSELILRKVDGKWFMQEERII", "protease stability score": 2.65}
{"record sequence": "SEDEDISRNFLELEWKKHMTGDWRTFAENIDPNARVDIDGVEFHGRELISRLMHEKIRKHGVKIKHLHIDHVSSQGDKIHINTTLVGLFNGRDTHLEVHIVITKINGRWVLQEFHFD", "protease stability score": 0.591}
{"record sequence": "REEEELMKEIARRVIESHYTGDEDWWLELADPNVQVHVGDKRKVGREHALHLLHIFHKHLGVDHLHLRHVHVQGDWIEIEMDLNINGKIREMRVFVTVIDGRLDSINIDIK", "protease stability score": 1.27}
